Assay: Thermodynamic solubility, shake-flask method
Type: physicochemical
Details: water, pH 7, Solubility, room temperature
MEASURE NAME: solubility at 72 h

Measured solubility at 72 h, Oc1c(Br)cc(Cl)c2cccnc12 : < 70 µg/mL

###

Test: Microsome metabolic stability and predicted hepatic clearance
Type: in vitro ADME
Conditions: cynomolgus monkey, liver microsomes, pH 7.4
MEASURE NAME: remaining at 1 h, 3 µM (%)
Just the number please, in %, no unit attached.

Measured remaining at 1 h, 3 µM, Oc1c(Br)cc(Cl)c2cccnc12 : 17.5

###

Experiment: Microsome metabolic stability and predicted hepatic clearance
Assay type: in vitro ADME
Conditions: human, liver microsomes, pH 7.4
MEASURE NAME: remaining at 1 h, 3 µM
Write the numeric value and append its unit.

Measured remaining at 1 h, 3 µM, Oc1c(Br)cc(Cl)c2cccnc12 : 35.5%
